# credit: the RNAGym collection of RNA variant scans (doi:10.1002/anie.201605470)

B1: Osa-1-4 twister ribozyme (parent)
chain: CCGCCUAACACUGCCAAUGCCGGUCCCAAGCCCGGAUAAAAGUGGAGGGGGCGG

Variants of: B1
Assay: self-cleavage, relative activity (ratio to wild type); higher = more cleavage; co-transcriptional
Please respond with reported self-cleavage for every item in the list.
Numbers only.

// solved cases for self-cleavage follow
# residueChange, self-cleavage
records = [
    ("A7C C26G", 0.02),
    ("A16U U18A", 0.89),
    ("C32A G34U", 0.05),
    ("A40U C27A", 0.09),
]

Quick one: give me self-cleavage for each item below, same order please.
1. C33U U18G
2. C15G U37C
3. C26A U12G
4. C31U G47U

OUTPUT:
1: 0.48; 2: 0.47; 3: 0.04; 4: 0.05
